Test system: BIN-67
Test: CellTiter-Glo cell viability assay
Type: cell-based, Human
Conditions: BIN-67, OVARIAN, Human Small Cell Carcinoma of the Ovary, 72 hours
Exercise: state measured IC50 for each of the compounds provided.
Numbers only, in nM.

# compound, experimental-target, IC50 / nM
data = [
    ("CC[C@@H](C(=O)Nc1ncc(C(=O)NO)s1)c1ccc(OC)cc1", "BIN-67", 450),
]

Hi, could you look up IC50 for each item in my list?
1. CC[C@H](C(=O)Nc1ncc(C(=O)NO)s1)c1ccc(OC)cc1
2. CCC(C(=O)Nc1ncc(C(=O)NO)s1)c1ccc(OC)cc1 (racemic)

Result block:
51
68

###

System: BT-20
Assay: CellTiter-Glo cell viability assay
Assay type: cell-based
Details: Homo sapiens; BT-20, BREAST, Carcinoma, 72 hours
metric: IC50 (nM)
Answers are plain numbers, in nM.

# compound, metric, data-value
data = [
    ("CCC(C(=O)Nc1ncc(C(=O)NO)s1)c1ccc(OC)cc1 (racemic)", "IC50", 236),
    ("CC[C@H](C(=O)Nc1ncc(C(=O)NO)s1)c1ccc(OC)cc1", "IC50", 93),
]

Consider the record given below.
Query block: Using the record for `CC[C@@H](C(=O)Nc1ncc(C(=O)NO)s1)c1ccc(OC)cc1` , report its IC50.
Result block: 759

###

Test system: SUM149PT
Assay: CellTiter-Glo cell viability assay
Assay type: cell-based
Settings: Homo sapiens; SUM149PT, BREAST, IBC, 72 hours
Field: IC50. Provide a value for each of the molecules that follow.
Give bare numbers, in nM.

Solved cases (2 shown):
# molecule, display-unit, IC50
rows = [
    ("CCC(C(=O)Nc1ncc(C(=O)NO)s1)c1ccc(OC)cc1 (racemic) [#1]", "nM", 191),
    ("CC[C@H](C(=O)Nc1ncc(C(=O)NO)s1)c1ccc(OC)cc1 [#1a]", "nM", 74),
]

Here's the next entry for you.
Query block: Item: CC[C@@H](C(=O)Nc1ncc(C(=O)NO)s1)c1ccc(OC)cc1 [#1b] Test system: SUM149PT Read-out: IC50 Value: ?
Result block: 612

###

Assay: Pharmacokinetics studies in mice
Type: in vivo
Conditions: mouse, in vivo, PO-5 mg/kg
metric: Tmax (min)
One number for each entry, in min.

# compound, display-unit, Tmax
data = [
    ("CC[C@H](C(=O)Nc1ncc(C(=O)NO)s1)c1ccc(OC)cc1", "min", 30),
    ("CCC(C(=O)Nc1ncc(C(=O)NO)s1)c1ccc(OC)cc1 (racemic)", "min", 30),
]

Then there is this compound:
Query block: Any idea what its Tmax is? The compound is `CC[C@@H](C(=O)Nc1ncc(C(=O)NO)s1)c1ccc(OC)cc1`
Result block: 60

###

Test: Pharmacokinetics studies in mice
Format: in vivo
Conditions: mouse, in vivo, SC-5 mg/kg, 5% Ethanol 5% Cremophor 90% Saline
metric: half-life
The answer consists of two parts: a number and, after it, its unit.

Query block: Could you share which half-life value was measured for `CC[C@H](C(=O)Nc1ncc(C(=O)NO)s1)c1ccc(OC)cc1` ?
Result block: 1.22 h

###

Test system: Ishikawa
Assay: CellTiter-Glo cell viability assay
Format: cell-based
Settings: Homo sapiens; Ishikawa, ENDOMETRIAL, 72 hours
Please respond with reported pIC50 for every item in the list.
Answers are plain numbers, as −log10 of the molar value.

# example entries with known answers
# compound, pIC50
records = [
    ("CCC(C(=O)Nc1ncc(C(=O)NO)s1)c1ccc(OC)cc1 (racemic)", 7.32),
    ("CC[C@H](C(=O)Nc1ncc(C(=O)NO)s1)c1ccc(OC)cc1", 7.55),
]

Next item in the queue.
Query block: Please look up its pIC50: `CC[C@@H](C(=O)Nc1ncc(C(=O)NO)s1)c1ccc(OC)cc1`
Result block: 6.72

###

Molecular target: HDAC11 (Homo sapiens, UniProt Q96DB2)
Construct: made in house
Sequence (Q96DB2 whole entry, species assumed): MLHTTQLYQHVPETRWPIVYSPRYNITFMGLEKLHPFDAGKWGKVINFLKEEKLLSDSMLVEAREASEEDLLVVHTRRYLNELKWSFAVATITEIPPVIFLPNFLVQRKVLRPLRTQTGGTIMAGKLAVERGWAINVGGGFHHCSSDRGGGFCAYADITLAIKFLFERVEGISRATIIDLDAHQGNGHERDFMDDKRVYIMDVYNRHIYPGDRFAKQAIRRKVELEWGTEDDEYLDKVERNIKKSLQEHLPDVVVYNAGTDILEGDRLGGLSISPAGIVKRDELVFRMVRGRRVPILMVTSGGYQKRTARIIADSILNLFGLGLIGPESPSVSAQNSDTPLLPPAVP
Test: Inhibition of HDAC enzymes, 12-point concentration-response
Type: biochemical
Conditions: HDAC11
metric: pIC50
Numbers only, as −log10 of the molar value.

Query block: State the recorded pIC50 for this entry: CC[C@@H](C(=O)Nc1ncc(C(=O)NO)s1)c1ccc(OC)cc1 [#1b]
Result block: 5.37

###

Experiment: Pharmacokinetics studies in mice
Format: in vivo
Details: mouse, in vivo, IV-1 mg/kg, 5% Ethanol 5% Cremophor 90% Saline
metric: half-life (min)
One number for each entry, in min.

Query block: What half-life value was documented for this compound, `CC[C@H](C(=O)Nc1ncc(C(=O)NO)s1)c1ccc(OC)cc1` ?
Result block: 55.8

###

Test system: Huh-7-luc
Experiment: CellTiter-Glo cell viability assay
Assay type: cell-based
Details: Huh-7-luc, LIVER, HCC, 72 hours
metric: pIC50
Numbers only, as −log10 of the molar value.

Example compounds with recorded pIC50:
# compound, pIC50
rows = [
    ("CC[C@@H](C(=O)Nc1ncc(C(=O)NO)s1)c1ccc(OC)cc1", 6.31),
    ("CC[C@H](C(=O)Nc1ncc(C(=O)NO)s1)c1ccc(OC)cc1", 7.17),
]

Now let's try a different one.
Query block: Given the compound CCC(C(=O)Nc1ncc(C(=O)NO)s1)c1ccc(OC)cc1 (racemic) , what is its reported pIC50?
Result block: 6.73

###

Tested on: SNU-1
Test: CellTiter-Glo cell viability assay
Type: cell-based
Settings: Homo sapiens, SNU1; SNU-1, GASTRIC, Carcinoma, 72 hours
Protocol: Cell viability in the presence of varying concentrations of the above listed compounds at different time points was used to assess cytotoxicity and the effect of the compounds on cell proliferation. Cell viability was measured by the CellTiter-Glo® cell viability assay from Promega (Madison, Wis.). […] Following treatment, CellTiter-Glo® is added to treatment wells and incubated at 37° C. luminescence values were measured at using a Molecular Devices Spectramax microplate reader […]
metric: pIC50
Answers are plain numbers, as −log10 of the molar value.

# molecule, pIC50
rows = [
    ("CCC(C(=O)Nc1ncc(C(=O)NO)s1)c1ccc(OC)cc1 (racemic)", 6.29),
]

# evaluate next
Query block: Entry `CC[C@@H](C(=O)Nc1ncc(C(=O)NO)s1)c1ccc(OC)cc1` has what pIC50?
Result block: 5.85

###

Test: Pharmacokinetics studies in mice
Format: in vivo
Details: mouse, in vivo, PO-5 mg/kg
I'd be grateful if you could share measured bioavailability for these entries.
One number for each entry, in %.

Sample records with bioavailability:
# molecule, display-unit, bioavailability
records = [
    ("CC[C@H](C(=O)Nc1ncc(C(=O)NO)s1)c1ccc(OC)cc1", "%", 13.9),
    ("CCC(C(=O)Nc1ncc(C(=O)NO)s1)c1ccc(OC)cc1 (racemic)", "%", 14.3),
]

Query block: Please report the recorded bioavailability for `CC[C@@H](C(=O)Nc1ncc(C(=O)NO)s1)c1ccc(OC)cc1` .
Result block: 16.2

###

Target chain: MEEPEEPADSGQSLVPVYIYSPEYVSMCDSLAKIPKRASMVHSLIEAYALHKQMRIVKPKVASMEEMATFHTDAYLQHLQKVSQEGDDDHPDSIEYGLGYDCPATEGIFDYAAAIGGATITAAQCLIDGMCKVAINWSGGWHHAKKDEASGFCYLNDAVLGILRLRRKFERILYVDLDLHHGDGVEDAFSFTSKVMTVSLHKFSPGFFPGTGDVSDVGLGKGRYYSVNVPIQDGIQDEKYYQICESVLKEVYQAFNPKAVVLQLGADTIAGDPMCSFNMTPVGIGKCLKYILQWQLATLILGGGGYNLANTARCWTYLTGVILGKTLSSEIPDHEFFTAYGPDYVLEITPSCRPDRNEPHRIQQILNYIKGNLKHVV
metric: IC50 (nM)
Give bare numbers, in nM.

Query block: Which IC50 is reported for this compound? `CC[C@@H](C(=O)Nc1ncc(C(=O)NO)s1)c1ccc(OC)cc1`
Result block: 416

###

Provide the reported Cmax of each item.
Test: Pharmacokinetics studies in mice
Assay type: in vivo
Conditions: mouse, in vivo, PO-5 mg/kg

Below: 2 compounds and their reported Cmax.
# compound, Cmax
measured = [
    ("CCC(C(=O)Nc1ncc(C(=O)NO)s1)c1ccc(OC)cc1 (racemic)", "30.8 ng/mL"),
    ("CC[C@@H](C(=O)Nc1ncc(C(=O)NO)s1)c1ccc(OC)cc1", "20.9 ng/mL"),
]

Here is the next item to consider.
Query block: // query Cmax value for entry `CC[C@H](C(=O)Nc1ncc(C(=O)NO)s1)c1ccc(OC)cc1`
Result block: 28.7 ng/mL

###

Test system: A2780cp
Assay: CellTiter-Glo cell viability assay
Format: cell-based, Human
Settings: A2780C/P; A2780cp, OVARIAN, Platinum res-Human Ovarian, 72 hours
metric: pIC50
One number for each entry, as −log10 of the molar value.

Check out these entries, answers already filled in.
# compound, pIC50
rows = [
    ("CC[C@H](C(=O)Nc1ncc(C(=O)NO)s1)c1ccc(OC)cc1", 7.21),
    ("CC[C@@H](C(=O)Nc1ncc(C(=O)NO)s1)c1ccc(OC)cc1", 6.42),
]

Now for the compound whose pIC50 we want.
Query block: Recorded pIC50 of CCC(C(=O)Nc1ncc(C(=O)NO)s1)c1ccc(OC)cc1 (racemic) , please.
Result block: 6.93
